# Tested on: aggregation of the washed rabbit platelet by thrombin
# Assay Text: Platelet aggregation inhibiting activity (washed rabbit platelet, thrombin)
# Assay type: cell-based
# Stated Conditions: Oryctolagus cuniculus, Platelet; washed rabbit platelets, thrombin 0.2 unit/ml, 37° C., Table 3; read-out: IC50 (50% inhibition concentration in M)
Known IC50 of a selection of compounds
I only need the number, in µM, no unit after it.

Compound	IC50 / µM
CCCCOc1ccc(S(=O)(=O)N(C)C(C)C(=O)O)c2cc(C(C)=O)oc12 (stereo not drawn)	160

q: Item under review: OCCN(CCO)c1nc(N2CCCCC2)c2nc(N(CCO)CCO)nc(N3CCCCC3)c2n1 [Persantin ®, dipyridamole, reference compound] . Reported IC50?
a: 200

q: Item under review: CCCCOc1ccc(S(=O)(=O)NC(C)C(=O)O)c2cc(C(C)=O)oc12 (stereo not drawn) . Reported IC50?
a: 160

###

Known pIC50 of a selection of compounds
# Assayed System: aldose reductase from rat lens (Rattus norvegicus)
Entry type: numeric. Quantity: pIC50, the -log10 of concentration in molar units.

Below, each entry is followed by its recorded pIC50 result.
Compound	Assayed System	pIC50
CCc1oc2ccc([N+](=O)[O-])cc2c1S(=O)(=O)NCC(=O)O [Compound 21]	aldose reductase from rat lens (Rattus norvegicus)	7.30
CCCCCOc1ccc(S(=O)(=O)NCC(=O)O)c2cc(C(C)=O)oc12 [Compound 5]	aldose reductase from rat lens (Rattus norvegicus)	7.30

Now for another entry.
q: Item under review: CC(=O)c1cc2c(S(=O)(=O)NCC(=O)O)ccc(OCc3ccccc3)c2o1 [Compound 29] . Reported pIC50?
a: 7.30

Values compiled from patent US4666931A.
